The values you see were collected from ChEMBL document CHEMBL5579854.

METHOD_SUMMARY: Solubility of compound
Assay type: physicochemical
# cutoff 200 µM applies to solubility; >= gives MET, < gives NOT MET

[
  {
    "COMPOUND_STRUCTURE_STRING": "CC(C)(C)OC(=O)N1CCC2(CC1)CN(Cc1ccc(C(=O)NO)cc1)c1ccccc12",
    "CLASSIFICATION": "MET"
  },
  {
    "COMPOUND_STRUCTURE_STRING": "O=C(NO)c1ccc(NC(=O)N2CCc3c(c4ccccc4n3Cc3ccccc3)C2)cc1",
    "CLASSIFICATION": "NOT MET"
  },
  {
    "COMPOUND_STRUCTURE_STRING": "CCN(CC)Cc1ccc(Cn2c3c(c4ccccc42)CN(C(=O)NCc2ccc(C(=O)NO)cc2)CC3)cc1",
    "CLASSIFICATION": "MET"
  },
  {
    "COMPOUND_STRUCTURE_STRING": "CN1CCc2c(c3ccccc3n2Cc2ccc(C(=O)NO)cc2)C1",
    "CLASSIFICATION": "MET"
  }
]

---

METHOD_SUMMARY: Stability of compound at pH 7.4 measured after 24 hrs
Type: physicochemical
PROTOCOL_CONDITIONS: buffer, read-out: Stability
Below: a set of entries, each annotated with reported remaining at 24 h.
MEASUREMENT_NAME: remaining at 24 h (%)

[
  {
    "COMPOUND": "O=C(NO)c1ccc(NC(=O)N2CCc3c(c4ccccc4n3Cc3ccccc3)C2)cc1",
    "MEASUREMENT_NAME": "remaining at 24 h",
    "PREFIX_OPERATOR": "=",
    "QUANTITATIVE_RESULT": 90
  },
  {
    "COMPOUND": "CC(C)(C)OC(=O)N1CCC2(CC1)CN(Cc1ccc(C(=O)NO)cc1)c1ccccc12",
    "MEASUREMENT_NAME": "remaining at 24 h",
    "PREFIX_OPERATOR": "=",
    "QUANTITATIVE_RESULT": 74
  },
  {
    "COMPOUND": "O=C(NO)c1ccc(COC(=O)N2CCC3(CC2)CN(Cc2ccccc2)c2ccccc23)cc1",
    "MEASUREMENT_NAME": "remaining at 24 h",
    "PREFIX_OPERATOR": "=",
    "QUANTITATIVE_RESULT": 64
  },
  {
    "COMPOUND": "Cn1c2c(c3ccccc31)CN(Cc1ccc(C(=O)NO)cc1)CC2",
    "MEASUREMENT_NAME": "remaining at 24 h",
    "PREFIX_OPERATOR": "=",
    "QUANTITATIVE_RESULT": 94
  },
  {
    "COMPOUND": "CN1CC2(CCN(Cc3ccc(C(=O)NO)cc3)CC2)c2ccccc21",
    "MEASUREMENT_NAME": "remaining at 24 h",
    "PREFIX_OPERATOR": "=",
    "QUANTITATIVE_RESULT": 71
  },
  {
    "COMPOUND": "Cn1c2c(c3ccccc31)CN(C(=O)OCc1ccc(C(=O)NO)cc1)CC2",
    "MEASUREMENT_NAME": "remaining at 24 h",
    "PREFIX_OPERATOR": "=",
    "QUANTITATIVE_RESULT": 90
  },
  {
    "COMPOUND": "CC1(C)c2ccccc2N(Cc2ccc(C(=O)NO)cc2)C1c1cccnc1 (stereo not given)",
    "MEASUREMENT_NAME": "remaining at 24 h",
    "PREFIX_OPERATOR": "=",
    "QUANTITATIVE_RESULT": 97
  },
  {
    "COMPOUND": "O=C(NO)c1ccc(CNC(=O)N2CCc3c(c4ccccc4n3Cc3ccccc3)C2)cc1",
    "MEASUREMENT_NAME": "remaining at 24 h",
    "PREFIX_OPERATOR": ">",
    "QUANTITATIVE_RESULT": 99
  },
  {
    "COMPOUND": "CCN(CC)Cc1ccc(Cn2c3c(c4ccccc42)CN(C(=O)NCc2ccc(C(=O)NO)cc2)CC3)cc1",
    "MEASUREMENT_NAME": "remaining at 24 h",
    "PREFIX_OPERATOR": "=",
    "QUANTITATIVE_RESULT": 92
  },
  {
    "COMPOUND": "CN1CCc2c(c3ccccc3n2Cc2ccc(C(=O)NO)cc2)C1",
    "MEASUREMENT_NAME": "remaining at 24 h",
    "PREFIX_OPERATOR": "=",
    "QUANTITATIVE_RESULT": 75
  }
]

---

METHOD_SUMMARY: Solubility of compound
Assay type: physicochemical
# cutoff 200 µM applies to solubility; >= gives True, < gives False

[
  {
    "COMPOUND": "Cn1c2c(c3ccccc31)CN(C(=O)OCc1ccc(C(=O)NO)cc1)CC2",
    "CLASSIFICATION": "True"
  },
  {
    "COMPOUND": "O=C(NO)c1ccc(CNC(=O)N2CCc3c(c4ccccc4n3Cc3ccccc3)C2)cc1",
    "CLASSIFICATION": "True"
  },
  {
    "COMPOUND": "CN1CC2(CCN(Cc3ccc(C(=O)NO)cc3)CC2)c2ccccc21",
    "CLASSIFICATION": "False"
  },
  {
    "COMPOUND": "O=C(NO)c1ccc(COC(=O)N2CCC3(CC2)CN(Cc2ccccc2)c2ccccc23)cc1",
    "CLASSIFICATION": "False"
  },
  {
    "COMPOUND": "CC1(C)c2ccccc2N(Cc2ccc(C(=O)NO)cc2)C1c1cccnc1 (stereo not given)",
    "CLASSIFICATION": "True"
  }
]

---

Below: a set of entries, each annotated with reported logP.
METHOD_SUMMARY: Lipophilicity, logP of compound
Assay type: physicochemical
PROTOCOL_CONDITIONS: octanol/water

[
  {
    "COMPOUND": "CN1CCc2c(c3ccccc3n2Cc2ccc(C(=O)NO)cc2)C1 [TUBASTATIN A]",
    "logP": 2.02
  },
  {
    "COMPOUND": "CCN(CC)Cc1ccc(Cn2c3c(c4ccccc42)CN(C(=O)NCc2ccc(C(=O)NO)cc2)CC3)cc1",
    "logP": 4.08
  },
  {
    "COMPOUND": "Cn1c2c(c3ccccc31)CN(C(=O)OCc1ccc(C(=O)NO)cc1)CC2",
    "logP": 3.2
  },
  {
    "COMPOUND": "O=C(NO)c1ccc(CNC(=O)N2CCc3c(c4ccccc4n3Cc3ccccc3)C2)cc1",
    "logP": 2.94
  },
  {
    "COMPOUND": "Cn1c2c(c3ccccc31)CN(Cc1ccc(C(=O)NO)cc1)CC2",
    "logP": 1.97
  },
  {
    "COMPOUND": "O=C(NO)c1ccc(COC(=O)N2CCC3(CC2)CN(Cc2ccccc2)c2ccccc23)cc1",
    "logP": 4.2
  },
  {
    "COMPOUND": "CC1(C)c2ccccc2N(Cc2ccc(C(=O)NO)cc2)C1c1cccnc1 (stereo unspecified)",
    "logP": 2.04
  },
  {
    "COMPOUND": "CC(/C=C/C(=O)NO)=C\\[C@@H](C)C(=O)c1ccc(N(C)C)cc1 [TRICHOSTATIN]",
    "logP": 2.57
  },
  {
    "COMPOUND": "CN1CC2(CCN(Cc3ccc(C(=O)NO)cc3)CC2)c2ccccc21",
    "logP": 2.1
  },
  {
    "COMPOUND": "CC(C)(C)OC(=O)N1CCC2(CC1)CN(Cc1ccc(C(=O)NO)cc1)c1ccccc12",
    "logP": 2.5
  },
  {
    "COMPOUND": "O=C(NO)c1ccc(NC(=O)N2CCc3c(c4ccccc4n3Cc3ccccc3)C2)cc1",
    "logP": 3.99
  }
]

---

Below: a set of entries, each annotated with reported pIC50.
SUBJECT_OF_TEST: UniProtKB Q9UBN7
Sequence (Q9UBN7 whole entry, the tested form may be a part): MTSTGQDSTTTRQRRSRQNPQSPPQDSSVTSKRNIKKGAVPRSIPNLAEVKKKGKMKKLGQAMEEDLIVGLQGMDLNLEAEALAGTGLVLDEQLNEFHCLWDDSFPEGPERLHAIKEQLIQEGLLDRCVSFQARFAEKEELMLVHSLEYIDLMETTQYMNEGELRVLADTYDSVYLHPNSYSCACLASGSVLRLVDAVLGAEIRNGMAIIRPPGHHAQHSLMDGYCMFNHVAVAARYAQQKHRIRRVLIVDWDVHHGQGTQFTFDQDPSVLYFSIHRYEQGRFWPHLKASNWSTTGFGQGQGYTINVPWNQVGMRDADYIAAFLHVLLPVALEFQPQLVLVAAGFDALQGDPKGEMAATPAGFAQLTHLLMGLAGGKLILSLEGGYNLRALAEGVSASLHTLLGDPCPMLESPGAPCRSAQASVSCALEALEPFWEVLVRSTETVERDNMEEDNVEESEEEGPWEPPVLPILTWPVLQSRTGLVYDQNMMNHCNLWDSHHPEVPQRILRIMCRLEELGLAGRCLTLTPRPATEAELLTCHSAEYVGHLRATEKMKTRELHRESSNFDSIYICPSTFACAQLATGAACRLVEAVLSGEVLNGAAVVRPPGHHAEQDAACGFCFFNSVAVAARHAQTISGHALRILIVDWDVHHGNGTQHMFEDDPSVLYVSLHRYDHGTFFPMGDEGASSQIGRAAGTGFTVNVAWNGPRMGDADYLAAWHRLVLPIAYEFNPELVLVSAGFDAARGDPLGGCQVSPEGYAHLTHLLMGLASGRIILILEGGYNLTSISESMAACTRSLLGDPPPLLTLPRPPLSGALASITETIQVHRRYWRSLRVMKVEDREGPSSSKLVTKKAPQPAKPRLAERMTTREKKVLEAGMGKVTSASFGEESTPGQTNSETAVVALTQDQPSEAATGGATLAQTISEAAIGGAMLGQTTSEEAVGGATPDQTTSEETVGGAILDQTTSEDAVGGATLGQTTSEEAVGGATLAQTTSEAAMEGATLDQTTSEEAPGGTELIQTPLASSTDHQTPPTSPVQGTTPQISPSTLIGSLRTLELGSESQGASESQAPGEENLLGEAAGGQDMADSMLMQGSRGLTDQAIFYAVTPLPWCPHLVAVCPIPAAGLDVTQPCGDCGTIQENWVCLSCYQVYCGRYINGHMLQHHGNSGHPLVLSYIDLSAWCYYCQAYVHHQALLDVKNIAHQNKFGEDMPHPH
METHOD_SUMMARY: Inhibition of C-terminal FLAG-tagged full-length recombinant human HDAC6 (1 to 1215 residues) expressed in Sf9 insect cells using a fluorogenic substrate preincubated for 30 mins followed by substrate addition measured after 30 mins by fluorescence based assay
pIC50: −log10 of the molar value.

[
  {
    "COMPOUND": "O=C(NO)c1ccc(CNC(=S)N2CCc3c(c4ccccc4n3Cc3ccccc3)C2)cc1",
    "PREFIX_OPERATOR": "<",
    "pIC50": 5.00
  },
  {
    "COMPOUND": "CC1(C)c2ccccc2N(Cc2ccc(C(=O)NO)cc2)C1c1cccnc1 (configuration not stated)",
    "PREFIX_OPERATOR": "=",
    "pIC50": 7.39
  }
]
